Assay: A qHTS for Small Molecule Inhibitors of Shiga Toxin
Conditions: Vero cells, Shiga toxin protein synthesis inhibition reporter; at 38.7 µM, stronger effect = higher value
Screen size: about 290,000 compounds; about 27,000 (9.3%) were called active. The list comes from a sample in which actives are over-represented; it also holds close analogues and randomly drawn compounds.
Quick list: inhibition per entry.
Just the number please, in %, no unit attached.

Note inhibition for the compound shown: CN(C)/C=C/C(=O)c1ccccc1F 30.4

Further cases:
Note inhibition for the compound shown: COc1cccc(-n2c(N)cc(=O)nc2SCC(=O)Nc2cc(C)on2)c1 13.4

Note inhibition for the compound shown: O=C(Cn1cnc([N+](=O)[O-])n1)NCCc1ccccc1 17.3

###

Assay: A qHTS for Small Molecule Inhibitors of Shiga Toxin
Conditions: Vero cells, Shiga toxin protein synthesis inhibition reporter; at 38.7 µM, stronger effect = higher value
The campaign covered roughly 290,000 compounds. About 27,000 (9.3%) were called active. The list comes from a sample in which actives are over-represented; it also holds close analogues and randomly drawn compounds.
Param threshold (20%) applies to inhibition; output satisfied when value >= threshold, not satisfied when value < threshold.

Please indicate if the recorded inhibition for Cc1noc(C)c1-c1ccc2ncnc(NC(C)c3ccco3)c2c1 (centres undefined) meets or exceeds 20%. satisfied

Please indicate if the recorded inhibition for CCOc1ccc2[nH]c3nc(SCC(=O)NC4CCCC4)nnc3c2c1 meets or exceeds 20%. not satisfied

Further cases:
Please indicate if the recorded inhibition for O=C(CN1CCC(NC(=O)C2CC2)CC1)Nc1ccccc1[N+](=O)[O-] meets or exceeds 20%. not satisfied

Please indicate if the recorded inhibition for Cc1c(CC(=O)NCC(=O)NCC(=O)O)c(=O)oc2cc3oc4c(c3cc12)CCCC4 meets or exceeds 20%. not satisfied

Please indicate if the recorded inhibition for COc1ccc(-n2cnc3cc(C(=O)NC4CCCC4)ccc32)cc1 meets or exceeds 20%. not satisfied

Please indicate if the recorded inhibition for COc1ccc2nc(Nc3nc4cc5c(cc4s3)OCCO5)sc2c1 meets or exceeds 20%. satisfied

Please indicate if the recorded inhibition for NS(=O)(=O)c1ccc(Nc2nc(-c3ccccc3)cs2)cc1 meets or exceeds 20%. not satisfied

Please indicate if the recorded inhibition for CN(C(=O)CN1C(=O)S/C(=C\c2ccccc2F)C1=O)C1CCS(=O)(=O)C1 (centres undefined) meets or exceeds 20%. not satisfied

Please indicate if the recorded inhibition for COc1ccc2nc(NC(=O)[C@@H]3CCCN3C(=O)c3cccs3)sc2c1 meets or exceeds 20%. satisfied

###

Experiment: A qHTS for Small Molecule Inhibitors of Shiga Toxin
Details: Vero cells, Shiga toxin protein synthesis inhibition reporter; at 38.7 µM
Screen size: about 290,000 compounds; about 27,000 (9.3%) were called active. Cut-off read from the data, not from the text of the source: active = inhibition mostly above about 28% (no sharp cut-off); inactive = mostly below about 43%. Many of the other results were omitted from the sample, so actives are more common in it than they were.
Classes to choose from: label 1 for active, label 0 for inactive

# count of solved cases: 3
Please indicate how the test categorized O=C(NNC(=O)c1ccccc1[N+](=O)[O-])Nc1ccccc1C(F)(F)F . label 0

Please indicate how the test categorized O=C(Nc1cccc2ncccc12)c1ccc(-c2ccc(Cl)cc2Cl)o1 . label 0

Please indicate how the test categorized C=CCNC(=O)c1csc(-c2ccccc2)n1 . label 0

Further cases:
Please indicate how the test categorized CCCCNC(=O)N(O)C1N(/N=C/c2ccccc2O)C(=S)SC1(C)C (stereo unspecified) . label 1

Please indicate how the test categorized O=C(N/N=C/c1cccc(OC(=O)c2ccc([N+](=O)[O-])cc2)c1)c1cccnc1 . label 0

Please indicate how the test categorized C=CCNC(=O)c1cc(-c2ccccc2O)on1 . label 1

Please indicate how the test categorized Cc1c(NC(=O)Nc2ccccc2)cccc1[N+](=O)[O-] . label 0

Please indicate how the test categorized CN(C)c1ccc(N/C=C/C(=O)C(F)(F)F)cc1 . label 0

Please indicate how the test categorized CC(=O)Oc1ccc2c(c1)C(=O)c1ccccc1C2=O . label 0

Please indicate how the test categorized Cc1ccc(-c2ccc(=O)n(Cc3ccc(F)cc3Cl)n2)cc1 . label 0

Please indicate how the test categorized CCCn1nc(NS(=O)(=O)c2ccc(F)cc2)c2cc3ccccc3nc21 . label 0

Please indicate how the test categorized NC(=O)c1oc2ccccc2c1NC(=O)CS(=O)(=O)c1ccccc1 . label 0

Please indicate how the test categorized Cc1ccc(-n2nc3ccc(NC(=O)/C=C/c4ccco4)cc3n2)cc1C . label 1
